Would you kindly list T/C for each of these compounds?
- System: HT29 xenograft, nude mice, s.c., tumor weight T/C%
- PROTOCOL NOTES: NCI In Vivo Anticancer Drug Screen. Data for tumor model HT29;CX-1 Human Adenocarcinoma (MER+) (subcutaneous) in NU/NU Swiss (nude) mice
- TEST CONDITIONS: endpoint: optimum tumor weight change; dose: 200.0 mg/kg/injection; schedule: Q04DX003 (ip); vehicle: suspension in saline; higher = larger tumour

Briefly, T/C measured for COC(OC(CO)C(O)S(=O)(=O)O)C(O)S(=O)(=O)O (configuration not stated) : 54 % of control

Briefly, T/C measured for CC(=O)OCC1OC(n2ccc(N)nc2=O)C(OC(C)=O)C1OC(C)=O (configuration not stated) : 56 % of control

Briefly, T/C measured for "O=C(NC1CCCCC1)OCc1c(COC(=O)NC2CCCCC2)c(-c2ccc(Cl)c(Cl)c2)n2c1CCC2" : 90 % of control

Briefly, T/C measured for O=CC(S)CO (configuration not stated) : 96 % of control

Briefly, T/C measured for CC(C)=CCNc1ncnc2c1ncn2C1OC(CO)C(O)C1O (configuration not stated) : 77 % of control

Briefly, T/C measured for CC(CN1CC(=O)NC(=O)C1)N1CC(=O)NC(=O)C1 (configuration not stated) : 57 % of control

Briefly, T/C measured for O=c1n[n+]([O-])ccn1C1OC(CO)C(O)C1O (configuration not stated) : 71 % of control
